Test: Lipophilicity, log D of the compound by HPLC method
Assay type: physicochemical
endpoint-name: logD

>>> observed("O=C(NC1C[C@H](c2cccc(CO)c2)Oc2ccccc21)C1(c2ccc3c(c2)OC(F)(F)O3)CC1 (some centres not stated)")
4.82
>>> observed("O=C(NC1CC(c2ccccc2)Oc2ccccc21)C1(c2ccc3c(c2)OC(F)(F)O3)CC1 (configuration not stated)")
5.31
>>> observed("O=C(NC1CC(c2ccc(Cl)cc2)Oc2ccccc21)C1(c2ccc3c(c2)OC(F)(F)O3)CC1 (configuration not stated)")
5.6
>>> observed("Cc1ccc2c(c1)O[C@@H](c1cccc(C(=O)O)c1)C[C@H]2NC(=O)C1(c2ccc3c(c2)OC(F)(F)O3)CC1")
4.01
>>> observed("COc1ccc2c(c1)[C@H](NC(=O)C1(c3ccc4c(c3)OC(F)(F)O4)CC1)C[C@H](c1cccc(C(=O)O)c1)O2")
3.84
>>> observed("COc1ccc2c(c1)O[C@H](c1ccc(OC)c(OC)c1)C[C@@H]2NC(=O)C1(c2ccc3c(c2)OC(F)(F)O3)CC1")
4.96
>>> observed("COc1ccc2c(c1)O[C@@H](c1ccc(OC)c(OC)c1)C[C@H]2NC(=O)C1(c2ccc3c(c2)OC(F)(F)O3)CC1")
4.88

Reference source for all entries: ChEMBL document CHEMBL4020819
